Biological target: Fc-fusion protein of human carbonic anhydrase IX (human, UniProt Q16790 38-414)
Assay: SPR, captured hCAIX-Fc; pKD category A: >8.0
Starred links: 1 amine or outer side, 2 acyl side, 3 side chain; linkers in the order of their positions; H or OH if unused. Positions of bridges follow the written chain, without caps; N, C: chain ends. Non-standard residues stand in square brackets, D forms with d. Primed or numbered codes have the meaning given here. *: point of attachment. Af3(TzPr) = 3-amino-L-phenylalanine acylated on the ring amine with 3-(1H-1,2,4-triazol-3-yl)propanoic acid, O=C(CCc1nc[nH]n1)Nc1cccc(C[C@H](N[*:1])C(=O)[*:2])c1; APAc″ = 2-(4-(amino)piperidin-1-yl)acetic acid, NC1CCN(CC(=O)*)CC1; DOTA = O=C(O)CN1CCN(CC(=O)O)CCN(CC(=O)*)CCN(CC(=O)O)CC1; mXylylene = c1cc(C[*:1])cc(C[*:2])c1; Dap = NC[C@H](N)C(=O)O; Ttds″ = Ttds spacer; Sar = CNCC(=O)O
Test readout: pKD

Before answering, review these 2 worked examples.
>>> measurement("{DOTA-Ttds″}-VYCE[Sar]DWLTWQC-NH2 (linker 3-12 via mXylylene; not fully specified) [3BP-3271]")
"> 8 pkd"
>>> measurement("{DOTA-APAc″}-VYCE[dP]D[Af3(TzPr)]LTWSC-NH2 (linker 3-12 via mXylylene) [3BP-4324]")
"> 8 pkd"

Consider the binder shown here: {DOTA}-SDCE[dP]DWLTW[Dap]C-NH2 (lactam 11-2; linker 3-12 via mXylylene; SMILES CC(C)C[C@@H]1NC(=O)[C@H](Cc2c[nH]c3ccccc23)NC(=O)[C@H](CC(=O)O)NC(=O)[C@H]2CCCN2C(=O)[C@H](CCC(=O)O)NC(=O)[C@@H]2CSCc3cccc(c3)CSC[C@@H](C(N)=O)NC(=O)[C@H](CNC(=O)C[C@H](NC(=O)[C@H](CO)NC(=O)CN3CCN(CC(=O)O)CCN(CC(=O)O)CCN(CC(=O)O)CC3)C(=O)N2)NC(=O)[C@H](Cc2c[nH]c3ccccc23)NC(=O)[C@H]([C@@H](C)O)NC1=O) [3BP-4257] What is its recorded pKD? > 8 pkd

Attribution: patent US20250339569A1
